# Target system: NLRP3 (Homo sapiens, UniProt Q96P20)
# Sequence (Q96P20 whole entry): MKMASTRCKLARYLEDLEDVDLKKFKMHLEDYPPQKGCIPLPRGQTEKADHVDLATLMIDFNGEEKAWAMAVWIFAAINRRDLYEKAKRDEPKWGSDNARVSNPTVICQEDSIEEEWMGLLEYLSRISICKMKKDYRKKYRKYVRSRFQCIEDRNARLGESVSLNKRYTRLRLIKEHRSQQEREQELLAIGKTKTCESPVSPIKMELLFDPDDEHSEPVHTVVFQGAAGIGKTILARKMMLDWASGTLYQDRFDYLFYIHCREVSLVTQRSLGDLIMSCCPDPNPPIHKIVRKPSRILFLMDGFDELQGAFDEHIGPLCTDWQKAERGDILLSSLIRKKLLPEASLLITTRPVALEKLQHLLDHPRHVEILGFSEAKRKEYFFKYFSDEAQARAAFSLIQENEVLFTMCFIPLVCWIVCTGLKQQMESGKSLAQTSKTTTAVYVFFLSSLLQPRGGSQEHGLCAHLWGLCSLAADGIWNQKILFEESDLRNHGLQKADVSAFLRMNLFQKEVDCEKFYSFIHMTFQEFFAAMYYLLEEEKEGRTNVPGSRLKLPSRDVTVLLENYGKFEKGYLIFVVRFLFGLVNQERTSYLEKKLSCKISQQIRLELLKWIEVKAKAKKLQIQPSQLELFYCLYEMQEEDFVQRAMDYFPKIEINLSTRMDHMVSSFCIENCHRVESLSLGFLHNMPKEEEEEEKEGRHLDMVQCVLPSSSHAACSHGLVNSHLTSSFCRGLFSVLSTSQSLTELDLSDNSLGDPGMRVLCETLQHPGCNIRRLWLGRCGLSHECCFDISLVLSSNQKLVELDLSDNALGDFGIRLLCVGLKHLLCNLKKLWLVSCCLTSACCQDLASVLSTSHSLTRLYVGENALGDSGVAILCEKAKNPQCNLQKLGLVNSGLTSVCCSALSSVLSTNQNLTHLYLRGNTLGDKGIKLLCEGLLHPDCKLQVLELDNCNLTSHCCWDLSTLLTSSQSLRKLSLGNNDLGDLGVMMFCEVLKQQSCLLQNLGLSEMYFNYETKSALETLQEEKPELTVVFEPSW
# Test summary: THP-1 cells pyroptosis assay
# Format: cell-based
# Design: Seed THP-1 cells (25,000 cells/well) containing 1.0 μg/ml LPS; host or cells: THP-1 cells, LPS-primed, nigericin-stimulated
# Stated conditions: THP-1 cells, 1.0 μg/ml LPS, compound 3 hrs, nigericin 5 μM 1 hr, resazurin readout; read-out: THP IC50
Counter-ions that a name gives are not always drawn.
Outcome measure: IC50

Record summary for `CC(C)c1cccc(C(C)C)c1NC(=O)NS(=O)(=O)c1cc(C(=O)N(C)CCO)n(C)n1` : reported IC50 = < 2560 nM

Record summary for `CNC(=O)c1cc(S(=O)(=O)NC(=O)Nc2c3c(cc4c2CCC4)CCC3)nn1C` : reported IC50 = < 2560 nM

Record summary for `CN(C)C1(c2cc(S(=O)(=O)NC(=O)Nc3c4c(cc5c3CCC5)CCC4)nn2C)COC1` : reported IC50 = < 640 nM

Record summary for `C[C@@H](Cn1ccc(S(=O)(=O)NC(=O)Nc2c3c(cc4c2CCC4)CCC3)n1)N(C)C` : reported IC50 = < 160 nM

Record summary for CN(C)CCn1ccc(S(=O)(=O)NC(=O)Nc2c3c(cc4c2CCC4)CC=C3)n1 [Example 181, potassium salt] : reported IC50 = < 160 nM

Record summary for `CC(C)c1cc(F)cc(C(C)C)c1NC(=O)NS(=O)(=O)c1cc(C(=O)N2CCC2)n(C(C)C)n1` : reported IC50 = < 640 nM

Record summary for COCCN(C)Cc1cc(S(=O)(=O)NC(=O)Nc2c3c(cc4c2CCC4)CCC3)nn1C [Example 126, sodium salt] : reported IC50 = < 640 nM

Record summary for CC(C)c1cc(F)cc(C(C)C)c1NC(=O)NS(=O)(=O)c1cc(C(=O)N(C)C)n(C)n1 [Example 160, sodium salt] : reported IC50 = < 640 nM

Record summary for CC(c1cc(S(=O)(=O)NC(=O)Nc2c3c(cc4c2CCC4)CCC3)nn1C)N1CCC1 (single isomer, unassigned) [Example 46, sodium salt] : reported IC50 = < 160 nM

Record summary for `CCN(C)C(=O)c1cc(S(=O)(=O)NC(=O)Nc2c(C(C)C)cccc2C(C)C)nn1C` : reported IC50 = < 2560 nM

Record summary for CN1CCC(n2ccc(S(=O)(=O)NC(=O)Nc3c4c(cc5c3CCC5)CCC4)n2)C1 (centres unmarked) [Example 205, sodium salt] : reported IC50 = < 40 nM

Record summary for O=C(Nc1c2c(cc3c1CCC3)CCC2)NS(=O)(=O)c1ccn(-c2ccccn2)n1 [Example 119, sodium salt] : reported IC50 = < 2560 nM

Record summary for `CN(C)CC(C)(C)n1cc(S(=O)(=O)NC(=O)Nc2c3c(cc4c2CCC4)CCC3)cn1` : reported IC50 = < 160 nM

Record summary for `CC(=O)N(C)Cc1cc(S(=O)(=O)NC(=O)Nc2c3c(cc4c2CCC4)CCC3)nn1C(C)C` : reported IC50 = < 160 nM

Record summary for `COc1cc(-c2ccc3c(c2NC(=O)NS(=O)(=O)c2ccn(C(C)(C)CN(C)C)n2)CCC3)ccn1` : reported IC50 = < 40 nM

Record summary for `CN1CC[C@H]1Cn1ccc(S(=O)(=O)NC(=O)Nc2c3c(cc4c2CCC4)CCC3)n1` : reported IC50 = < 160 nM

Record summary for CN(CC#N)C(=O)c1cc(S(=O)(=O)NC(=O)Nc2c3c(cc4c2CCC4)CCC3)nn1C [Example 153, ammonium salt] : reported IC50 = < 640 nM

Record summary for `C[C@H](CN(C)C)n1ccc(S(=O)(=O)NC(=O)Nc2c3c(cc4c2CCC4)CCC3)n1` : reported IC50 = < 640 nM

Record summary for CC(C)n1nc(S(=O)(=O)NC(=O)Nc2c3c(cc4c2CCC4)CCC3)cc1C(=O)N1CCC1 [Example 131, ammonium salt] : reported IC50 = < 160 nM

Record summary for `CC(C)N(C)C(=O)c1cc(S(=O)(=O)NC(=O)Nc2c3c(cc4c2CCC4)CCC3)nn1C` : reported IC50 = < 160 nM

Record summary for CNCC(C)(C)n1ccc(S(=O)(=O)NC(=O)Nc2c3c(cc4c2CCC4)CCC3)n1 [Example 204, sodium salt] : reported IC50 = < 160 nM

Record summary for COCCNC(=O)c1cc(S(=O)(=O)NC(=O)Nc2c3c(cc4c2CCC4)CCC3)nn1C [Example 175, ammonium salt] : reported IC50 = < 10000 nM

Record summary for CC(c1cc(S(=O)(=O)NC(=O)Nc2c3c(cc4c2CCC4)CCC3)nn1C)N1CCC1 (single isomer, unassigned) [Example 47, sodium salt] : reported IC50 = < 160 nM

Record summary for `COc1cc(-c2ccc3c(c2NC(=O)NS(=O)(=O)c2ccn(C(C)(C)C#N)n2)CCO3)ccn1` : reported IC50 = < 160 nM

Record summary for CCN(CC)C(=O)c1cc(S(=O)(=O)NC(=O)Nc2c(C(C)C)cc(F)cc2C(C)C)nn1C [Example 148, sodium salt] : reported IC50 = < 640 nM

Record summary for `Cn1ccnc1Cn1ccc(S(=O)(=O)NC(=O)Nc2c3c(cc4c2CCC4)CCC3)n1` : reported IC50 = < 40 nM

Record summary for `CCN(CC)C(=O)c1cc(S(=O)(=O)NC(=O)Nc2c(C(C)C)cccc2C(C)C)nn1C` : reported IC50 = < 2560 nM

Record summary for `CC(C)c1cccc(C(C)C)c1NC(=O)NS(=O)(=O)c1cc(C(=O)N(C)C(C)C)n(C)n1` : reported IC50 = < 640 nM

Record summary for `CNC(=O)c1cc(S(=O)(=O)NC(=O)Nc2c(C(C)C)cc(F)cc2C(C)C)nn1C` : reported IC50 = < 640 nM
